Values were extracted from PubChem BioAssay (NCI).

test system: CCRF-CEM leukemia; experiment: NCI-60 one-dose screen, 48 h (100 = growth as untreated, 0 = no growth, -100 = all killed); conditions: 10 µM unless noted
The panel holds about 83,000 compounds, 20% with a hit somewhere; the sample as a whole holds those more often.
observation_type: growth (%)
The response must be a number in % with no trailing unit.

Here are 4 compounds together with their reported answers.
*Q* Quick one: give measured growth for O=C(Nc1ccc(Br)cc1)c1cc(Br)cc(Br)c1O
*A* 13.5

*Q* Tell me measured growth for CC(C)(NC(=O)O[C@@H]1CN2CCC1CC2)c1csc(-c2ccc(F)cc2)n1 please.
*A* 98.3

*Q* Give the reported growth for this compound. Clc1cccc(NCOOC2(OOCNc3cccc(Cl)c3)CCCCCC2)c1
*A* 80.2

*Q* Name the recorded growth of the item CC12CCC(O)CC1=CCC1C2CCC2(C)C(O)CCC12 (stereo not given) in your answer.
*A* 94.9

Note: attention shifts to another entry.
*Q* Specify growth for CC1=C2[C@@H](CC1)[C@]1(C)O[C@@](C(C)C)(C[C@H]1O)[C@H]2OC(=O)C1CC1c1ccccc1 (stereo not given in full) and stop.
*A* 74.9

---

system: SK-MEL-28 melanoma; assay: NCI-60 one-dose screen, 48 h (100 = growth as untreated, 0 = no growth, -100 = all killed); conditions: 10 µM unless noted
Compounds without any hit were thinned out: in the full panel of roughly 83,000, 20% have a hit.
observation_type: growth (%)
Express your answer in %, writing the number without its unit.

*Q* Indicate its recorded growth; the molecule in question is COC(=O)[C@@H](C)C[C@H](Cc1ccccc1)NC(=O)c1nc([C@@H](C[C@H](C(C)C)N(C)C(=O)[C@@H](NC(=O)[C@H]2CCCN2C)C(C)C)OC(C)=O)sc1C
*A* 65.6

*Q* Give the value of growth reported for the following: Oc1c(O)c(Cl)c(Cl)c(Cl)c1Cl
*A* 51.4

*Q* Using the record for CCOC(=O)[C@@H](C)C[C@H](Cc1ccccc1)NC(=O)c1csc([C@@H](C[C@H](C(C)C)N(C)C(=O)[C@H](CC)NC(=O)[C@H]2CCCCN2C)OC(C)=O)n1 , state its measured growth.
*A* 61.8

*Q* Query growth for COP(=O)(OC)C(O)c1ccc(Cl)cc1 (stereo not drawn)
*A* 109

*Q* Read off the recorded growth for C/C(=C\c1cc(C(F)(F)F)nn1CCNC(=O)OC(C)(C)C)[C@@H]1C[C@@H]2O[C@]2(C)CCC[C@H](C)[C@H](O)[C@@H](C)C(=O)C(C)(C)[C@@H](O)CC(=O)O1
*A* 79.2

*Q* Determine its reported growth: CC12CC=CCC1CCC1C2CCC2(C)C(c3ccc(=O)oc3)CCC12O (stereo not drawn)
*A* -33.8

*Q* Check the records and state growth for C[N+](C)(C)Cc1cc(Cl)ccc1O
*A* 102

Next:
*Q* Identify measured growth corresponding to C[C@@]1(CCCCCCCCCc2ccc(O)cc2)C[C@]2(C)OC(=O)C[C@@H]2OO1
*A* 99.5

---

test system: TK-10 renal; test: NCI-60 one-dose screen, 48 h (100 = growth as untreated, 0 = no growth, -100 = all killed); conditions: 10 µM unless noted
Compounds without any hit were thinned out: in the full panel of roughly 83,000, 20% have a hit.
observation_type: growth (%)
Dear colleague, please return just the value in %, with no unit written.

*Q* Supply measured growth of O=C(Nc1ccc(O)cc1)C(Cl)(Cl)Cl in your reply.
*A* 106

*Q* Could you please provide reported growth for O=C(Nc1ccc(Br)cc1)c1cc(Br)cc(Br)c1O ? Thanks!
*A* 14.6

*Q* Tell me its growth given COc1cc([C@@H]2c3cc4c(cc3[C@H](OC(C)=O)[C@H]3COC(=O)[C@H]23)OCO4)cc(OC)c1OC as the entry.
*A* 65.9

***
*Q* Quote growth reported for C=C(C)[C@@]12OC3(/C=C/C=C/CCCCC)O[C@@H]1[C@@H]1[C@@H]4O[C@]4(CO)[C@@H](O)[C@]4(O)C(=O)C(C)=C[C@H]4[C@@]1(O3)[C@H](C)[C@H]2OC(=O)c1ccccc1 please.
*A* 47.1

*Q* Output measured growth for this item: CCCCCCC(=O)NC1=C(N2CC2)C(=O)C(NC(=O)CCCCCC)=C(N2CC2)C1=O
*A* 75.5

*Q* Respond only with growth recorded for CCCc1cc(O)c2c3c(c(=O)oc2c1)CN(C)CC3
*A* 47.3

*Q* Give the reported value of growth for this record: CC1(C)N=C(N)N=C(N)N1c1cccc(CCCCc2ccc(Cl)c(S(=O)(=O)F)c2)c1
*A* 55.5

*Q* Tell me measured growth for CN1C(=O)C(=Cc2cn(CCCCCCn3c4ccccc4c(=O)c4ccccc43)c3ccccc23)C(=O)N(C)C1=O please.
*A* 111

*Q* Find the measured growth of O=c1[nH]c2ccc([N+](=O)[O-])cc2c(=O)o1 and report it.
*A* 104
